target: human Cot catalytic domain (30-397 amino acids) (Homo sapiens, UniProt P41279); construct: Purified recombinant human Cot catalytic domain (30-397 amino acids) was purchased from Cama Biosciences; purchased Cama Biosciences (so in the source); test: High Throughput Cot Biochemical Assay (KinEASE TR-FRET); settings: Cot KinEASE TR-FRET, 400 μM ATP; read-out: IC50 HTRF
Sequence (P41279 30-397): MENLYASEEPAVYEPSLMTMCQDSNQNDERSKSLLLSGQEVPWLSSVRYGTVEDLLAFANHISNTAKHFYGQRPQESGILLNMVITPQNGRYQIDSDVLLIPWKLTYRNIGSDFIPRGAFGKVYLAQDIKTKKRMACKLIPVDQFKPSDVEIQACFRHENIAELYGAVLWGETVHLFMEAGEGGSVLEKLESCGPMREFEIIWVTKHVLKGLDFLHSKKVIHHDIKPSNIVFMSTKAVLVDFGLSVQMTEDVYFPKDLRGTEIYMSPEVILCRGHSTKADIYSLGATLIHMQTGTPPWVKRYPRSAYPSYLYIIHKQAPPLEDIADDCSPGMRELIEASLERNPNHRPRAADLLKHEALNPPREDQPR
pIC50: −log10 of the molar value.
Entries annotated with measured pIC50

compound	tested_on	operator	pIC50
Cc1ccccc1[C@H](Nc1cc(C#N)c2ncc(C#N)c(NCC(C)(C)C)c2c1)c1cn(C2(C(F)F)CC2)nn1 [Example 1066]	human Cot catalytic domain (30-397 amino acids) (Homo sapiens, UniProt P41279)	=	8.00
Cc1c(-c2cn(C)cn2)cccc1[C@H](Nc1cc(Cl)c2ncc(C#N)c(NCC(C)(C)C)c2c1)c1cn(C2(C(F)(F)F)CC2)nn1 [Example 1119]	human Cot catalytic domain (30-397 amino acids) (Homo sapiens, UniProt P41279)	=	7.96
CC(C)(C)CNc1c(C#N)cnc2c(Cl)cc(N[C@@H](c3ccc(F)cc3)c3cn(C4(C(N)=O)CC4)nn3)cc12 [Example 996]	human Cot catalytic domain (30-397 amino acids) (Homo sapiens, UniProt P41279)	=	8.22
[2H]c1c([C@@]([2H])(Nc2cc(Cl)c3ncc(C#N)c(NCC(C)(C)C)c3c2)c2c(F)cccc2Cl)nnn1C1(C)CC1 [Example 1046]	human Cot catalytic domain (30-397 amino acids) (Homo sapiens, UniProt P41279)	=	6.85
N#Cc1cnc2c(Cl)cc(NC(c3cc(F)c(F)c(F)c3)c3cn(C4CCN(C(=O)OCc5ccccc5)CC4)nn3)cc2c1Nc1ccc(F)c(Cl)c1 (stereo not drawn) [Example 890]	human Cot catalytic domain (30-397 amino acids) (Homo sapiens, UniProt P41279)	<	5.00
Cc1c(C#N)cccc1[C@H](Nc1cc(Cl)c2ncc(C#N)c(NCC(C)(C)C)c2c1)c1cn(C2(C(N)=O)CC2)nn1 [Example 1008]	human Cot catalytic domain (30-397 amino acids) (Homo sapiens, UniProt P41279)	=	9.00
